Hi there, I'd appreciate the recorded inhibition at 25 µM for every entry that follows.
- System name: LasB (Pseudomonas aeruginosa)
- Construct: uses as source of enzyme dialysed supernatant from P. aeruginosa PAO1; endogenous in cells; host or cells: P. aeruginosa PAO1 culture supernatant, filtered and dialysed
- Sequence (P14756 198-498): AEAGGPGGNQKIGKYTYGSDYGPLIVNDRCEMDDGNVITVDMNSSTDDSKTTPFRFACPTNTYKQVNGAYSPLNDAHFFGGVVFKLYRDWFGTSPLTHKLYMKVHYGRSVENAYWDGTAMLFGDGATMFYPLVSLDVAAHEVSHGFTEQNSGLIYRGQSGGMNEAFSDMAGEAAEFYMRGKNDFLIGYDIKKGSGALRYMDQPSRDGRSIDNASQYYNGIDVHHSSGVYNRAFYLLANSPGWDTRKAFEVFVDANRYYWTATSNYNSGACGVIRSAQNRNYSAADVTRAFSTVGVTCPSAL
- Procedure text: Elastin assay to determine % inhibition (Elastin Congo-Red, dialysed culture supernatant)
- Type: biochemical, P. aeruginosa PAO1
- Details: read-out: Elastin hydrolysis % inhibition @ 50 / 25 µM inhibitor concentration
- Description: Experiments were therefore conducted (1) to measure the potency of inhibition of compounds of the invention against purified Pseudomonas aeruginosa LasB enzyme and also experiments were conducted (2) to measure the ability of compounds of the invention to inhibit LasB-catalysed elastin degradation. […] The Elastin assay uses as source of enzyme dialysed supernatant from P. aeruginosa PAO1 and the Elastin Congo-Red as substrate. […] This red dye release can be measured with a spectrophotometer. […]

// each listed compound needs a value for inhibition at 25 µM
1. CN1CCN(CC(=O)Nc2ccc(-c3csc(CNC(=O)C4(CC(=O)O)Cc5ccccc5C4)n3)cc2)CC1
2. Cc1nn(C)cc1-c1csc(CNC(=O)C2(CC(=O)O)Cc3ccccc3C2)n1
3. NCCOc1ccccc1-c1csc(CNC(=O)C2(CC(=O)O)Cc3ccccc3C2)n1
4. C[N+]1(CCOc2ccc(-c3csc(CNC(=O)C4(CC(=O)[O-])Cc5ccccc5C4)n3)cc2S(C)(=O)=O)CCOCC1
5. C[n+]1ccc(COc2ccc(-c3csc(CNC(=O)C4(CC(=O)[O-])Cc5ccccc5C4)n3)cn2)cc1
6. CN1CCN(CCCn2cc(-c3csc(CNC(=O)C4(CC(=O)O)Cc5ccccc5C4)n3)cn2)CC1

A.
1. 60 to 75%
2. 60 to 75%
3. 10 to 60%
4. 60 to 75%
5. 10 to 60%
6. 60 to 75%

These measurements were taken from patent EP3628672A1.
